tested.system: T1, cSNK:BSA conjugate (bovine, head-to-tail cyclized; conjugated to BSA carrier)
T1 construct: also called BSA-cSNK
T1 sequence (P02769 25-607 limits assumed): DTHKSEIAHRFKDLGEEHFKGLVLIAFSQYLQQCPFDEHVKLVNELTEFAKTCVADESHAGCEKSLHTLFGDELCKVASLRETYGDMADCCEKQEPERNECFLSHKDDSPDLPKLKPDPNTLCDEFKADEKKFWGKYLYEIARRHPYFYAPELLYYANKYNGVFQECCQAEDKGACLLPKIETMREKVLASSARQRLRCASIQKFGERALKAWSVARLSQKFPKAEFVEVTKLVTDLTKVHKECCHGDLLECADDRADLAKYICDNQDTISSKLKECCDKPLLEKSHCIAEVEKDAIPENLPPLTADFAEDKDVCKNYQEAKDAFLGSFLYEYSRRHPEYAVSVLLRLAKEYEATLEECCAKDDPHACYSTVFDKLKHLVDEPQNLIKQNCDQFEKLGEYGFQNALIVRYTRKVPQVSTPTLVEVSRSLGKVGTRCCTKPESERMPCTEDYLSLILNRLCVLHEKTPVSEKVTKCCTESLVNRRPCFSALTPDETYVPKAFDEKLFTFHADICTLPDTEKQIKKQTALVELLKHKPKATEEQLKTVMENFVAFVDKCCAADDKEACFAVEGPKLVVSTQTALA
assay.details: BLI 2:1 fit, site 2 (kon2); 25 nM row
recorded.metric: kon (M⁻¹ s⁻¹)
Give just the number in M⁻¹ s⁻¹; leave the unit off.

query: For the binder shown here, hu5E3-IgG2 (antibody, V domains shown, human IgG2/kappa; also called humanized 5E3 IgG2) VH: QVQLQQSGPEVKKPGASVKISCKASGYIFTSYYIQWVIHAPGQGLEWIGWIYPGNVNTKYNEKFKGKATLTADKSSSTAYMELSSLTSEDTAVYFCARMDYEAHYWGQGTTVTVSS VL: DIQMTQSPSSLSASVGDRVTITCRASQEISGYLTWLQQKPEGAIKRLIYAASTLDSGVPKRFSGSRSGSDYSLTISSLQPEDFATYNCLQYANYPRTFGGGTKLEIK , give the reported kon.
result: 5.28e+06

Values compiled from patent US20170008955A1.
